Data provenance is paper PMC5785503.

EXPERIMENTAL TARGET: Nluc-H1R (Homo sapiens)
Sequence (P35367 2-487 limits assumed): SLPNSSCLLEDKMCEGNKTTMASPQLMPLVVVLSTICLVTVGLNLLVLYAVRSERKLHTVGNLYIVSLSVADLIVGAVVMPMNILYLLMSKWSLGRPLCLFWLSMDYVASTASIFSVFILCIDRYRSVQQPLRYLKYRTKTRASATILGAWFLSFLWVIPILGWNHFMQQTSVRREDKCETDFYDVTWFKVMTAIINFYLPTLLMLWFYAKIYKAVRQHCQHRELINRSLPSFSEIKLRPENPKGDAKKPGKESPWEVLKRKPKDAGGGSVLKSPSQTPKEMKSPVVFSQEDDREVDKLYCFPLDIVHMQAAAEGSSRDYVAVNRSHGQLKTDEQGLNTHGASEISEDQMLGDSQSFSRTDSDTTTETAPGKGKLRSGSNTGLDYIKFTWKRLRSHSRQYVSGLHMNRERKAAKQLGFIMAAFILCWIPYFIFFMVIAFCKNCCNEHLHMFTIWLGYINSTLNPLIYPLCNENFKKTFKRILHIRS
ASSAY TEXT: NanoBRET association kinetics in whole HEK293T cells
Type: binding
TEST SETTINGS: read-out: NanoBRET kinetics kon, whole HEK293T cells expressing Nluc-H1R, room temperature; non-specific 10 μM doxepin
MEASUREMENT KIND: kon (M⁻¹ s⁻¹)

1. COc1ccc(CN(CCN(C)CCC(=O)N[C@@H](C)C(=O)N[C@@H](C)C(=O)N[C@@H](CO)C(=O)NCCNC(=O)CCCCCNC(=O)COc2ccc(/C=C/C3=[N+]4C(=Cc5ccc(-c6cccs6)n5[B-]4(F)F)C=C3)cc2)c2ccccn2)cc1
330000
2. COc1ccc(CN(CCN(C)CCC(=O)NCCCC(=O)N[C@@H](C)C(=O)N[C@@H](C)C(=O)NCCNC(=O)CCCCCNC(=O)COc2ccc(/C=C/C3=[N+]4C(=Cc5ccc(-c6cccs6)n5[B-]4(F)F)C=C3)cc2)c2ccccn2)cc1
55000
3. NC(=O)C[C@H](NC(=O)CNC(=O)CNC(=O)CCN1CCC(Oc2ccccc2Cc2ccccc2)CC1)C(=O)NCCNC(=O)CCCCCNC(=O)COc1ccc(/C=C/C2=[N+]3C(=Cc4ccc(-c5cccs5)n4[B-]3(F)F)C=C2)cc1
48300
